Target: T1, recombinant human LIGHT-214E, FLAG-tagged extracellular domain (human)
T1 construct: Trimer; Biotinylated in some assays
T1 chain: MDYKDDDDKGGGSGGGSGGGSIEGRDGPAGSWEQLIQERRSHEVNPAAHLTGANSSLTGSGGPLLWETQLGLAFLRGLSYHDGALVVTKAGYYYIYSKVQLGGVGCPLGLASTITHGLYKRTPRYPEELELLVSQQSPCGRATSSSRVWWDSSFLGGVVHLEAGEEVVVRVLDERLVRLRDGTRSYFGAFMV
Assay: SPR ProteOn, mAb captured on anti-mouse IgG, LIGHT 256 nM, 25 C, apparent affinity
Value Kind: Kd
Note: state the figure and append the unit.

Binder: 13H04 (purified from hybridoma supernatant) (antibody, V domains shown, Murine constant / human variable chimeric IgG, lambda, Protein G purified from hybridoma supernatant) VH: QVQLVQSGAEVKKPGASVKVSCKASGYTFTSYGISWVRQAPGQGLEWMGWISAHNANTNYAQKLQGRVTMTTDTSTSTAYMELRSLRSDDTAMYYCARLYRNWFDPWGQGTLVTVSS VL: QSALTQPASVSGSPGQSITISCTGTSSDVGGYNYVSWYQQHPGKAPKLMIYDVSKRPSGVSNRFSGSKSGNTASLTISGLQAEDEADYYCCSYAGSSTLLFGGGTKLTVL
Kd: 881 pM

Consider now this further binder.
Query 42A02 (purified from hybridoma supernatant) (antibody, V domains shown, Murine constant / human variable chimeric IgG, lambda, Protein G purified from hybridoma supernatant) VH: EVQLVESGGGLVQPGGSLRLSCAASGFTFSSYVMSWVRQAPGKGLEWVSVISSSGVTTYYADSVKGRFTISRDNSKNTLYLQMNSLRAEETAVYYCAKGNYGSGSFCDYWGQGTPVTVSS VL: SYVLTQPPSVSVAPGKTARITCGGNNIGSKSVHWYQQRPGQAPILVIYYDSDRPSGIPERFSGSNSGNSATLTISRVEAGDEADYHCQVWESSSDHPVFGGGTKLTVL yields Kd of 62 pM
